- ASSAY EXPLANATION: Toxicity against sc dosed NMRI mouse
- Assay type: organism-based
- COND: in vivo
MEASURED ATTRIBUTE: LD50 (mg/kg)
Report the value in mg/kg with no unit label.

-- ask Look up and report measured LD50 for this entry: `NCCCNCCSP(=O)(O)O`
-- reply 609
